Values were extracted from PubChem BioAssay AID1665.

assayNotes: beta-catenin nuclear localization change in HeLa – imaging, HeLa cells, immunofluorescence, high-content, primary screen (AID 1665);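 for nuclear translocation activity: per-cell ratio of nuclear to cytoplasmic median beta-catenin stain intensity; plate controls were DMSO negative control for no effect and GSK-3 inhibitor IX positive control for full effect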
assayConditions: at 5 µM; stronger effect = higher value
Screen size: about 190,000 compounds; about 590 (0.31%) were called active. The list comes from a sample in which actives are over-represented; it also holds close analogues and randomly drawn compounds.
endpointLabel: nuclear translocation activity (%)
Write the answer as a number in %, unit excluded.

Some compounds with known nuclear translocation activity results, for comparison:
1. CCCCCCCCCCCCN1C(=O)CSC1c1cccnc1 (stereo unspecified); -0.9
2. C[C@@H](NC(=O)OC(C)(C)C)c1nnc(S(=O)(=O)Cc2ccccc2)o1; -0.8
3. COc1cc(/C=N\Nc2nc(-c3cccs3)c(NC(C)=O)s2)ccc1O; 0.1
4. COc1ccc(-c2nn(C)c(=O)c3ccccc23)cc1CNC(=O)C1CCCCC1; 0.1
5. O=[N+]([O-])c1ccc(N=Cc2c(O)ccc3ccccc23)cc1; 0.8
6. Cc1cc(C)nc(SCc2cn3c(C)cc(C)nc3n2)n1; -0.4

Incoming: Given the entry Cc1ccccc1N1CCN(CCCOc2ccc3c(C)cc(=O)oc3c2)CC1 , report its measured nuclear translocation activity.
Outgoing: 1.9

Incoming: So what's the measured nuclear translocation activity for this one? Nc1ccc(C(=O)OCC(=O)NC2CCS(=O)(=O)C2)cc1[N+](=O)[O-] (stereo unspecified)
Outgoing: -3.1

====

assayNotes: beta-catenin nuclear localization change in HeLa – imaging, HeLa cells, immunofluorescence, high-content, primary screen (AID 1665);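 for nuclear translocation activity: per-cell ratio of nuclear to cytoplasmic median beta-catenin stain intensity; plate controls were DMSO negative control for no effect and GSK-3 inhibitor IX positive control for full effect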
assayConditions: at 5 µM; stronger effect = higher value
Out of some 190,000 compounds screened, about 590 (0.31%) were called active. The list comes from a sample in which actives are over-represented; it also holds close analogues and randomly drawn compounds.
Listed here are compounds together with their documented nuclear translocation activity.
Reply with just the number (in %).

1) COC(=O)c1cc(NC(=O)c2ccco2)ccc1N1CCOCC1; -0.7
2) Cc1cc(C(=O)NCCc2ccc(Cl)cc2)n(-c2ccccc2)n1; -0.3
3) O=[N+]([O-])c1cccc2ncccc12; -0.4
4) CCOc1ccccc1N1CN(Cc2ccccc2)CNC1=S; -1.3
5) COc1cc(OC)cc(/C(N)=N/O)c1; 0.5
6) O=C(NCc1ccco1)C1CCCN1S(=O)(=O)c1ccccc1C(F)(F)F (centres undefined); -0.6

Incoming: Given Cc1cnc(NC(=O)CSc2nnc(-c3ccc(Cl)cc3Cl)n2N)s1 , state its recorded nuclear translocation activity.
Outgoing: -0.9

Incoming: Can you look up the measured nuclear translocation activity of Nc1nonc1-c1nc2ccccc2n1CCC(=O)O for me?
Outgoing: -2

Incoming: Please give the measured nuclear translocation activity for this compound: C/C(=N\NC(=O)c1cccnc1)c1ccc(-c2ccccc2)cc1
Outgoing: -0.7

Incoming: Tell me the measured nuclear translocation activity of CCOC(=O)Cc1cc(=O)[nH]c(/N=C(\N)Nc2ccc(OC)cc2)n1 , please.
Outgoing: -0.7

Incoming: What nuclear translocation activity value was documented for this compound, O=C(Cn1cnc2cc([N+](=O)[O-])ccc2c1=O)NC(=O)NCc1ccccc1 ?
Outgoing: -2.1

Incoming: Look up nuclear translocation activity: O=C(O)C(F)(F)C(NCc1ccccc1)c1ccccc1 (centres undefined)
Outgoing: 0

Incoming: Which nuclear translocation activity is listed for O=C(NNC(=O)c1cc2c(s1)CCCC2)c1ccccc1 ?
Outgoing: -1.8

Incoming: What value of measured nuclear translocation activity is listed for O=C(Nc1ccc(S(=O)(=O)Nc2nccs2)cc1)c1cccc(S(=O)(=O)N2CCOCC2)c1 ?
Outgoing: 0.8

====

assayNotes: beta-catenin nuclear localization change in HeLa – imaging, HeLa cells, immunofluorescence, high-content, primary screen (AID 1665)
assayConditions: at 5 µM
Screen size: about 190,000 compounds; about 590 (0.31%) were called active.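 How the source made its calls: active means nuclear translocation activity above 50% at 5 µM, with a well cell count of 50 or more; inconclusive means wells under 50 cells across six images, flagged as toxic; inactive means the rest.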 This excerpt belongs to a sample that is enriched for actives.
The reply should be one of these categories: active, inactive

Examples with answers:
1) Cc1ccc(/C=N/NC(=S)Nc2cccc(S(=O)(=O)N(C)C)c2)o1; inactive
2) COc1cc2nc(Cl)nc(NCCO)c2cc1OC; inactive
3) CN(c1ccccc1)S(=O)(=O)c1ccc(Cl)c(C(=O)OCC(=O)NCc2ccco2)c1; inactive
4) O=C(O)CC1(CC(=O)Nc2cccc(C(F)(F)F)c2)CCCC1; inactive
5) CCCC(=O)Nc1nc2ccc(NC(=O)c3cccnc3)cc2s1; inactive

Incoming: Give the logged outcome of this assay for the following molecule: O=C(O)c1ccccc1OCc1ccccc1Cl
Outgoing: inactive

Incoming: Which outcome was assigned to COc1ccc(CCN2C(=O)CC(N3CCC(C(N)=O)CC3)C2=O)cc1OC (centres undefined) in this test?
Outgoing: inactive

Incoming: // param item: Cc1nn(CC(=O)N/N=C/c2ccc(F)cc2)c(C)c1[N+](=O)[O-] ; yields the recorded call
Outgoing: inactive

Incoming: Please indicate how the test categorized CCN(CC)c1ccc(/C=N/NC(=O)c2cnccn2)c(O)c1 .
Outgoing: inactive

====

assayNotes: beta-catenin nuclear localization change in HeLa – imaging, HeLa cells, immunofluorescence, high-content, primary screen (AID 1665);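 for nuclear translocation activity: per-cell ratio of nuclear to cytoplasmic median beta-catenin stain intensity; plate controls were DMSO negative control for no effect and GSK-3 inhibitor IX positive control for full effect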
assayConditions: at 5 µM; stronger effect = higher value
Hit rate of the full screen: of about 190,000 compounds, about 590 (0.31%) were called active. The list comes from a sample in which actives are over-represented; it also holds close analogues and randomly drawn compounds.
endpointLabel: nuclear translocation activity (%)
I only need the number, in %, no unit after it.

1) Cc1ccc(F)cc1NC(=O)N1CCCN(c2ccc(C(F)(F)F)cn2)CC1; -1

Incoming: What does the record list as nuclear translocation activity for O=c1[nH]nc(SCCS(=O)(=O)c2ccc(F)cc2)n1-c1ccccc1C(F)(F)F ?
Outgoing: 2.8

Incoming: Give its nuclear translocation activity value. Item: COc1ccc(Cc2nnc(NC(=O)c3cc(OC)c(OC)c(OC)c3)s2)cc1OC
Outgoing: 53.4

Incoming: Item O=C(Nc1nnc(Cc2ccc(Cl)cc2)s1)c1ccncc1 has what recorded nuclear translocation activity?
Outgoing: 1

====

assayNotes: beta-catenin nuclear localization change in HeLa – imaging, HeLa cells, immunofluorescence, high-content, primary screen (AID 1665)
assayConditions: at 5 µM; HeLa beta-catenin nuclear translocation, measured here: cell count, cytotoxicity flag
The whole screen tested about 190,000 compounds, of which about 590 (0.31%) were called active. Shown is part of a subset that was picked to be rich in actives.
Item-by-item account of cell count
# output: bare number, implied unit cells

Incoming: Item COc1cc(C=O)ccc1Oc1nnnn1-c1ccccc1 has what recorded cell count?
Outgoing: 1310

Incoming: May I ask what cell count has been recorded for CCOc1ccccc1NC(=O)CCc1ccc(C)o1 ?
Outgoing: 1160

Incoming: If you can, please state the reported cell count value of O=[N+]([O-])/C=C1\CCCCCN1 .
Outgoing: 1320

====

assayNotes: beta-catenin nuclear localization change in HeLa – imaging, HeLa cells, immunofluorescence, high-content, primary screen (AID 1665)
assayConditions: at 5 µM; HeLa beta-catenin nuclear translocation, measured here: cell count, cytotoxicity flag
Out of some 190,000 compounds screened, about 590 (0.31%) were called active. The full list was thinned out, with actives kept by preference.
Listed below: cell count values for each entry.
Enter your answer as a number in cells; do not include the unit.

# annotated cases, reported cell count shown
1) CCN(CC)c1ccc(/C=N/NC(=O)c2cnccn2)c(O)c1; 1050
2) Cc1ccc(C(=O)NNC(=O)c2cc3cc4ccccc4nc3s2)cc1; 719
3) COc1ccc(-n2nnnc2-c2nc3ccccc3s2)cc1; 953
4) CCc1nc2sc3c(Cl)ncnc3c2c2c1CCCC2; 1350
5) O=C(Nc1ccc(S(=O)(=O)N2CCOCC2)cc1)c1ccc2ncsc2c1; 1420
6) CC(=O)NC(=S)Nc1ccc(NC(=S)NC(=O)c2ccc([N+](=O)[O-])cc2)cc1; 1350
7) Nc1ccc(C(=O)OCC(=O)NC2CCS(=O)(=O)C2)cc1[N+](=O)[O-] (configuration not stated); 1260
8) Cc1ccc(C(=O)NNC(=O)c2cccs2)cc1; 1120
9) COc1ccc(S(=O)(=O)N(CC(=O)N/N=C/c2ccccc2C(=O)O)c2ccccc2OC)cc1; 1300
10) CCOC(=O)c1c(NC(=O)NC(C)(C)C)sc2c1CCN(C)C2; 1280

Incoming: // lookup cell count for COC(=O)c1c(C)oc(C)c1S(=O)(=O)Nc1ccc(C(C)C)cc1
Outgoing: 1320

Incoming: Requested field: cell count. Item: COc1ccc(CCN2C(=O)CC(N3CCC(C(N)=O)CC3)C2=O)cc1OC (configuration not stated)
Outgoing: 1240

====

assayNotes: beta-catenin nuclear localization change in HeLa – imaging, HeLa cells, immunofluorescence, high-content, primary screen (AID 1665)
assayConditions: at 5 µM; HeLa beta-catenin nuclear translocation, measured here: cell count, cytotoxicity flag
The whole screen tested about 190,000 compounds, of which about 590 (0.31%) were called active. The full list was thinned out, with actives kept by preference.
endpointLabel: cell count

These recorded examples may help you get a feel for the data.
1) CCc1cccc(CC)c1NC(=S)Nc1ccc2cn[nH]c2c1; 1270 cells
2) Cc1cc(C(=O)N/N=C/c2ccccc2[N+](=O)[O-])c(C)o1; 1070 cells
3) CCN(CC)CCCN=Cc1c(O)n(-c2ccc(C)cc2)c(=O)c2ccccc12; 1350 cells

Now look at this one.
Incoming: Item under review: COc1ccc(-c2cc(C(=O)NCc3ccco3)no2)cc1OC . Reported cell count?
Outgoing: 1220 cells
